# Test Method Notes: AUC in rat at 650 mg/kg, po using spray dry sample
# Format: ADME, organism-based
# Reported Conditions: in vivo
Exercise: for every item that follows, state its recorded AUC.
Numbers only, in µM·h.

CNC(=O)c1c(-c2ccc(F)cc2)oc2cc(N(C)S(C)(=O)=O)c(-c3ccc4c(n3)-c3cc5c(F)cccc5n3CC4)cc12
181

Need AUC, item CNC(=O)c1c(-c2ccc(F)cc2)oc2cc(N(C)S(C)(=O)=O)c(-c3ccc4c(n3)-c3cc5c(F)cccc5n3CO4)cc12 [MK-8876]
226

---

# Test Method Notes: Oral bioavailability in monkey at 3 mg/kg
# Assay type: ADME, organism-based, Macaca mulatta
# Reported Conditions: rhesus monkey, in vivo
Endpoint: bioavailability
# number then unit; no other words

Some entries whose results are on file:
CNC(=O)c1c(-c2ccc(F)cc2)oc2cc(N(C)S(C)(=O)=O)c(-c3ccc4ncn5c6cccc(F)c6cc5c4n3)cc12
20%
CNC(=O)c1c(-c2ccc(F)cc2)oc2cc(N(C)S(C)(=O)=O)c(-c3ccc4ccn5c6cccc(F)c6cc5c4n3)cc12
24%
CNC(=O)c1c(-c2ccc(F)cc2)oc2cc(N(C)S(C)(=O)=O)c(-c3ccc4c(n3)-c3cc5c(F)cccc5n3CN4)cc12
9.3%

Need bioavailability, item `CNC(=O)c1c(-c2ccc(F)cc2)oc2cc(N(C)S(C)(=O)=O)c(-c3ccc4c(n3)-c3cc5c(F)cccc5n3CC4)cc12`
22%
